- measured target: human Lck enzyme (Homo sapiens, UniProt P06239)
- Construct: purchased Carna Biosciences, Inc. 08-170
- Sequence (P06239 whole entry): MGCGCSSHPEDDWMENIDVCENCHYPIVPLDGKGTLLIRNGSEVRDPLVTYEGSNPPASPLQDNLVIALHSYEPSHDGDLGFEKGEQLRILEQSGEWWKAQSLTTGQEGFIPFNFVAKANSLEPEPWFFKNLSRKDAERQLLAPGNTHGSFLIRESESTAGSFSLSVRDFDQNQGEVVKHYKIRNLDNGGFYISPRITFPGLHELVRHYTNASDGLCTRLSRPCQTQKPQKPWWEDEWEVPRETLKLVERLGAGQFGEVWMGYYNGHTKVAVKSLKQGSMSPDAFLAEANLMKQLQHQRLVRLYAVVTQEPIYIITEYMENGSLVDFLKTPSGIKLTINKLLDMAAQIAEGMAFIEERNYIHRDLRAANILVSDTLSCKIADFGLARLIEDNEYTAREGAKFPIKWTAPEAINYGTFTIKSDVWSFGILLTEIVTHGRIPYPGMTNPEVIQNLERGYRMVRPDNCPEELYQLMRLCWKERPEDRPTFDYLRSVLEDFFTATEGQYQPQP
- method: Lck enzyme inhibitory activity (time-resolved fluorometry, biotinylated peptide phosphorylation)
- Format: biochemical
- measurement conditions: biotinylated peptide phosphorylation, read-out: LCK_IC50
measurement name: IC50 (nM)

Example entries and their recorded answers appear below.
Cc1cc(Oc2ccccc2F)ccc1-n1ncc(C(=O)c2cc3cc(OC(F)F)c(N4C(=O)C(C)(C)NC4=S)cc3[nH]2)c1N	16
Cc1cc(Oc2ccccc2F)ccc1-n1ncc(C(=O)c2cc3cc(OC4CCOCC4)c(NS(C)(=O)=O)cc3[nH]2)c1N	20
Cc1cc2cc(C(=O)c3cnn(-c4cnc(Oc5ccccc5F)cc4C)c3N)[nH]c2cc1NS(=O)(=O)c1cc(Cl)ccn1	130

a. Cc1cc(Oc2ccccc2F)ncc1-n1ncc(C(=O)c2cc3cc(OC(F)F)c(N4CCN(S(C)(=O)=O)CC4)cc3[nH]2)c1N
b. Cc1cc(Oc2ccccc2F)ncc1-n1ncc(C(=O)c2cc3cc(OC(F)F)c(N4CCOCC4)cc3[nH]2)c1N
// query Returns the identifier with the smallest measured IC50 among a and b . Answer by stating the label of the chosen item.
// result b
